System: HT-29
Test: Antiproliferative activity against human HT-29 cells after 72 hrs by SRB assay
Type: functional, cell-based
Settings: Homo sapiens, HT-29, 72 h; read-out: IC50
pIC50: −log10 of the molar value.
Each record here notes measured pIC50.
Property Measured: pIC50

Compound	Val
COc1cc(O[C@@H]2O[C@H](CO)[C@@H](OC)[C@H](O)[C@H]2O)c(CC=C(C)C)c(O)c1C(=O)/C=C/c1ccc(O)cc1	4.29
COc1cc(O[C@@H]2O[C@H](CO)[C@@H](O)[C@H](O)[C@H]2O)c(CC=C(C)C)c(O)c1C(=O)/C=C/c1ccc(O)cc1 [XANTHOHUMOL-4'-O-BETA-D-GLUCOPYRANOSIDE]	4.20
